Biological target: 5-hydroxytryptamine receptor 6 (Homo sapiens, UniProt P50406); also: in other assays of this panel Not Active means under 50% inhibition at 10 µM
Sequence (P50406 whole entry): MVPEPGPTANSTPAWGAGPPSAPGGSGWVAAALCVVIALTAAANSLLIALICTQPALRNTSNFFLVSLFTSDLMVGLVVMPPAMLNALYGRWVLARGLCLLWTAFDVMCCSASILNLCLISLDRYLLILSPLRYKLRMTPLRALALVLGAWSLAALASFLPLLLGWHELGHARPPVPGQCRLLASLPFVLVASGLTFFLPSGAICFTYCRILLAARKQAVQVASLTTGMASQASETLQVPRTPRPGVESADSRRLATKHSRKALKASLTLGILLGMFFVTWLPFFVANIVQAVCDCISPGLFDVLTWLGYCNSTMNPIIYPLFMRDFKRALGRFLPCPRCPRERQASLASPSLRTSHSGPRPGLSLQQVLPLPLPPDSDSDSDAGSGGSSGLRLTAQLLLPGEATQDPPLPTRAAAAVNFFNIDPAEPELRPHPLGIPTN
Type: cell membranes, HeLa, Membrane
Details: read-out: Ki
Measurement Label: pKi
One number for each entry, as −log10 of the molar value.

Here is how some compounds turned out for pKi.
Clc1ccc(C(c2ccccc2Cl)C(Cl)Cl)cc1 (stereo unspecified) ... 6.19
CN1C[C@H](C(=O)N[C@]2(C)O[C@@]3(O)[C@@H]4CCCN4C(=O)[C@H](Cc4ccccc4)N3C2=O)C=C2c3cccc4[nH]cc(c34)C[C@H]21 ... 9.02
Clc1ccccc1C(c1ccccc1)(c1ccccc1)n1ccnc1 ... 5.23
CNCCC=C1c2ccccc2CCc2ccccc21 ... 6.59
CSc1ccc2c(c1)N(CCC1CCCCN1C)c1ccccc1S2 (stereo unspecified) ... 7.48

Here is another compound to look at.
For CN(C)CCCN1c2ccccc2CCc2ccc(Cl)cc21 , write its pKi.
6.94

====

Would you mind telling me the reported pKi of each entry?
Biological target: UniProt P30542
Sequence (P30542 whole entry): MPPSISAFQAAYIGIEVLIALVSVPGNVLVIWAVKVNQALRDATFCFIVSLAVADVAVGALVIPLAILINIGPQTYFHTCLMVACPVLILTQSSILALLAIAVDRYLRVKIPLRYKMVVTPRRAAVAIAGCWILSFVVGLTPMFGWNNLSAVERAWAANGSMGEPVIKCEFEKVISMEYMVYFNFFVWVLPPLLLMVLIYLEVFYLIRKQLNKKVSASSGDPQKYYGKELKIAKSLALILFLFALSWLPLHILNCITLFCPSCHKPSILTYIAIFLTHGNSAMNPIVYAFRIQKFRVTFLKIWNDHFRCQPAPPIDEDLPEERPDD
Type: cell membranes, CHO, Membrane
Conditions: read-out: Ki
Answers are plain numbers, as −log10 of the molar value.

COC(=O)C1=C(C)NC(C)=C(C(=O)OC)C1c1ccccc1[N+](=O)[O-] ... 5.35

Attention now shifts to the item below.
Return pKi (reported value) for this molecule: O=c1cc(-c2ccccc2)oc2c1ccc1ccccc12
6.18

====

Target: Neuropeptide Y receptor type 2 (Homo sapiens, UniProt P49146); also: in other assays of this panel Not Active means under 50% inhibition at 10 µM
Sequence (P49146 whole entry): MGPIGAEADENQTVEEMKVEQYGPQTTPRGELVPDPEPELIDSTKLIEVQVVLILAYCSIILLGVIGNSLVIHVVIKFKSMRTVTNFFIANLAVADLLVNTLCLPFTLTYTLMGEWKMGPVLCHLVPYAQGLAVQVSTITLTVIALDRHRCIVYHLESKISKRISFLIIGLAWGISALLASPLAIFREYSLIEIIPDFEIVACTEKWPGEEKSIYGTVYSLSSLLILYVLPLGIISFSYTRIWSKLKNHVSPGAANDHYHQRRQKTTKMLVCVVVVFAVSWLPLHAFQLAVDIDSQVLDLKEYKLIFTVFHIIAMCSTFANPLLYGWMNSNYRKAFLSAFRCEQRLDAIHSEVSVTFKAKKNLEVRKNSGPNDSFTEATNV
Type: cell membranes, Membrane
Settings: kan-ts
Measurement Label: IC50

Worked cases, answers included:
NC(=O)c1ccccc1O [SALICYLAMIDE] ... Not Active
COc1ccc([C@@H]2Sc3ccccc3N(CCN(C)C)C(=O)[C@@H]2OC(C)=O)cc1 ... Not Active
CC(C)(S)[C@@H](N)C(=O)O ... Not Active
COC1=CC(=O)C[C@@H](C)[C@]12Oc1c(Cl)c(OC)cc(OC)c1C2=O ... Not Active

// below: IC50 requested for another compound
Quote IC50 reported for Cc1ccc(C(=O)C(C)CN2CCCCC2)cc1 (stereo not given) please.
Not Active

====

Assay: DRUGMATRIX: Sigma2 radioligand binding (ligand: [3H] Ifenprodil)
Format: cell membranes, Rattus norvegicus, Wistar, Brain, Membrane
Conditions: Not Active = under 50% inhibition at 10 µM
Measurement Label: IC50

Below, each entry is followed by its recorded IC50 result.
Brc1ccccc1 [BROMOBENZENE] ... Not Active
C=C(C)[C@@H]1[C@H]2OC(=O)[C@@H]1[C@]1(O)C[C@H]3O[C@]34C(=O)O[C@H]2[C@]14C [PICROTOXININ] ... Not Active
COc1c(N2CCNC(C)C2)c(F)cc2c(=O)c(C(=O)O)cn(C3CC3)c12 (stereo not given) [GATIFLOXACIN] ... Not Active
O=c1[nH]cc(F)c(=O)[nH]1 [FLUOROURACIL] ... Not Active

Identify measured IC50 associated with CC(C)n1c(/C=C/C(O)CC(O)CC(=O)O)c(-c2ccc(F)cc2)c2ccccc21 (stereo not given) [FLUVASTATIN]
Not Active

====

Target: Mitogen-activated protein kinase 1 (Homo sapiens, UniProt P28482)
Sequence (P28482 whole entry): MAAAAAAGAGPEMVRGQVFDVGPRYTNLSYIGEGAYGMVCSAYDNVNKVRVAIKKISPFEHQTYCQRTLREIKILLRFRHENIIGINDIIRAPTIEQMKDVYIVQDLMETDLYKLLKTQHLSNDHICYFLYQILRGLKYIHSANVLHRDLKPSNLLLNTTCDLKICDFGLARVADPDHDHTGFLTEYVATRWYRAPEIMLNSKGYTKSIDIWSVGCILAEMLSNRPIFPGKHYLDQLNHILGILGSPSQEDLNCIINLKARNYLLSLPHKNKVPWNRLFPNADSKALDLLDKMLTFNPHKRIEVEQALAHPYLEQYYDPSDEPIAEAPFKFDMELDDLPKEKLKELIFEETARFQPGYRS
Assay: DRUGMATRIX: Protein Serine/Threonine Kinase, ERK2 enzyme inhibition (substrate: Myelin Basic Protein)
Set-up: species or system Escherichia coli
Conditions: Not Active = under 50% inhibition at 10 µM
Measurement Label: IC50

Illustrative cases are given below, each with its answer.
C/C=C1\[C@H]2C=C(C)C[C@]1(N)c1ccc(=O)[nH]c1C2 ... Not Active
CC(/C=C1\SC(=S)N(CC(=O)O)C1=O)=C\c1ccccc1 ... Not Active
COc1ccc2cc(CC(=O)O)ccc2c1 ... Not Active
NS(=O)(=O)c1cc2c(cc1Cl)NCNS2(=O)=O [HYDROCHLOROTHIAZIDE] ... Not Active
CN(C)CCCN1c2ccccc2CCc2ccc(Cl)cc21 ... Not Active

Give one value of IC50 per listed compound.
1. Brc1ccccc1
2. c1ccc2[nH]c(-c3cscn3)nc2c1
3. Nc1nc(=O)[nH]cc1F
4. CCCSc1ccc2nc(NC(=O)OC)[nH]c2c1
5. CN1[C@@H]2CC[C@H]1C[C@@H](OC(=O)c1c[nH]c3ccccc13)C2
6. CN(C)[C@@H]1C(O)=C(C(N)=O)C(=O)[C@@]2(O)C(O)=C3C(=O)c4c(O)cccc4[C@@](C)(O)[C@H]3C[C@@H]12
7. CC1=Nc2ccc(Cl)cc2S(=O)(=O)N1 [DIAZOXIDE]
8. Cc1ccccc1N1CCN(CCc2nnc3n2CCCC3)CC1

Not Active
Not Active
Not Active
Not Active
Not Active
Not Active
Not Active
Not Active

====

Target: Adenosine receptor A2a (Homo sapiens, UniProt P29274)
Sequence (P29274 whole entry): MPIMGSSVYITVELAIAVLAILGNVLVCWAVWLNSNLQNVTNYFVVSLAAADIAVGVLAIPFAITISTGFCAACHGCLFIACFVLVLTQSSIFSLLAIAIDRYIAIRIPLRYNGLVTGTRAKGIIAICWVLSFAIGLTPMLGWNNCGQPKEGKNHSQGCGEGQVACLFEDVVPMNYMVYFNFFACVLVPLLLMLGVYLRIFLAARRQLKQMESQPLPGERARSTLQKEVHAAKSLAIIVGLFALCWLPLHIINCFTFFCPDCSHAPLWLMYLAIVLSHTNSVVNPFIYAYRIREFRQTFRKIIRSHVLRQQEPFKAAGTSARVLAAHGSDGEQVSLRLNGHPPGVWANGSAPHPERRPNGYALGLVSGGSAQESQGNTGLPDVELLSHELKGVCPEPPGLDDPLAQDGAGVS
Assay: DRUGMATRIX: Adenosine A2A radioligand binding (ligand: […])
Type: cell membranes, HEK293, Membrane
Conditions: Not Active = under 50% inhibition at 10 µM; read-out: Ki
Measurement Label: Ki (µM)
Answers are plain numbers, in µM.

State, for Adenosine receptor A2a (Homo sapiens, UniProt P29274), measured Ki of the compound listed here: Oc1c(Cl)cc(Cl)cc1Sc1cc(Cl)cc(Cl)c1O [BITHIONOL]
0.655

====

Assay: DRUGMATRIX: Purinergic P2X radioligand binding (ligand: [3H] alpha, beta-Methylene-ATP)
Type: cell membranes, Oryctolagus cuniculus, New Zealand albino, Urinary bladder, Membrane
Conditions: Not Active = under 50% inhibition at 10 µM
Where a SMILES comes first, the peptide text is derived from it. Bridges are numbered along the chain shown (N, C = ends). [ ]: non-standard residue; d: D form. The star is where a group is joined. Ileψ(thiazoline)Cys = CC[C@H](C)[C@H](N)C1=N[C@H](C(=O)*)CS1; dOrn = NCCC[C@@H](N)C(=O)O
Measurement Label: Ki

Worked cases, answers included:
O=[N+]([O-])c1cc([As](=O)(O)O)ccc1O ... Not Active
Nc1ccc(S(N)(=O)=O)cc1 [SULFANILAMIDE] ... Not Active
CN1C(C(=O)Nc2ccccn2)=C(O)c2ccccc2S1(=O)=O ... Not Active
Cc1ccccc1N1CCN(CCc2nnc3n2CCCC3)CC1 ... Not Active
Oc1c(Cl)cc(Cl)cc1Sc1cc(Cl)cc(Cl)c1O ... Not Active

Give Ki for each listed item.
1. CC[C@H](C)[C@H](N)C1=N[C@H](C(=O)N[C@@H](CC(C)C)C(=O)N[C@H](CCC(=O)O)C(=O)N[C@H](C(=O)N[C@H]2CCCCNC(=O)[C@H](CC(N)=O)NC(=O)[C@@H](CC(=O)O)NC(=O)[C@H](Cc3cnc[nH]3)NC(=O)[C@@H](Cc3ccccc3)NC(=O)[C@H]([C@@H](C)CC)NC(=O)[C@@H](CCCN)NC2=O)[C@@H](C)CC)CS1 [BACITRACIN] ({Ileψ(thiazoline)Cys}-L[dE]IK[dOrn]I[dF]H[dD]N; lactam 4-C)
2. Cc1c(-c2ccccc2)oc2c(C(=O)OCCN3CCCCC3)cccc2c1=O [FLAVOXATE]
3. O=C(O)c1cn(C2CC2)c2cc(N3CCNCC3)c(F)cc2c1=O
4. COC(=O)c1ccc(O)cc1

["Not Active", "Not Active", "Not Active", "Not Active"]

Would you mind listing Ki for each of the following compounds?
1. COCc1c(C(C)C)nc(C(C)C)c(/C=C/[C@@H](O)C[C@@H](O)CC(=O)O)c1-c1ccc(F)cc1
2. CC(C)(C)NC(=O)[C@@H]1CN(Cc2cccnc2)CCN1C[C@@H](O)C[C@@H](Cc1ccccc1)C(=O)N[C@H]1c2ccccc2C[C@H]1O.O
3. COc1c(C)c2c(c(O)c1C/C=C(\C)CCC(=O)OCCN1CCOCC1)C(=O)OC2 [MYCOPHENOLATE MOFETIL]
4. COc1c(N2CCNC(C)C2)c(F)cc2c(=O)c(C(=O)O)cn(C3CC3)c12 (centres undefined)
5. CC(=O)O[C@]1(C(C)=O)CC[C@H]2[C@@H]3C=C(Cl)C4=CC(=O)CC[C@]4(C)[C@H]3CC[C@@]21C [CHLORMADINONE ACETATE]

["Not Active", "Not Active", "Not Active", "Not Active", "Not Active"]
